Test system: GT1-7
test_protocol: Antiprion activity in human transmissible spongiform encephalopathies agent Fukuoka-1 prion infected mouse GT1-7 cells assessed as inhibition of proteinase K-resistant PrPres accumulation at […] after 3 days by Western blotting analysis
Assay type: cell-based
The source made the active and inactive calls. The calls are words filed in the database; no cut-off is given here.
experimental_endpoint: inhibition

OC(CNCc1ccccn1)Cn1c2c(c3ccccc31)CCCC2 (stereo not drawn) = Active
OC(CNCc1c(Cl)cccc1Cl)Cn1c2c(c3ccccc31)CCCC2 (stereo not drawn) = Active
OC(CNCc1cccc2ccccc12)Cn1c2c(c3ccccc31)CCCC2 (stereo not drawn) = Active
